# TEST_SYSTEM: T1, Bud14, P27637
# T1 sequence (P27637 247-328, looked up): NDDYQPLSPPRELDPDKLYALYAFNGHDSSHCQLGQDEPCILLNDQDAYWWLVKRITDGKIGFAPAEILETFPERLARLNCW
# METHOD_NOTES: SPOT array
# EXPERIMENTAL_SETUP: median of control spots 956
Measured SPOT intensity, listed per entry for reference.
PROPERTY_NAME: SPOT intensity

- BINDER: "GRLRPKRIAPWHLIQ"
  PROPERTY_NAME: "SPOT intensity"
  RESULT_VALUE: 3
- BINDER: "NRLRKRLNLPSEISI"
  PROPERTY_NAME: "SPOT intensity"
  RESULT_VALUE: 7
- BINDER: "DDEDVPPQLPTRTKS"
  PROPERTY_NAME: "SPOT intensity"
  RESULT_VALUE: 1
- BINDER: "QLLNPNRRAPRRPLS"
  PROPERTY_NAME: "SPOT intensity"
  RESULT_VALUE: 11
- BINDER: "TPRLSLPRLPNKHHW"
  PROPERTY_NAME: "SPOT intensity"
  RESULT_VALUE: 9
- BINDER: "HGKRRAPLLLAKLDV"
  PROPERTY_NAME: "SPOT intensity"
  RESULT_VALUE: 14
- BINDER: "ALFRLSFFFPLDPAY"
  PROPERTY_NAME: "SPOT intensity"
  RESULT_VALUE: 12
